Each entry below carries its recorded Ki.
Biological target: Alkaline phosphatase, tissue-nonspecific isozyme (Bos taurus, UniProt P09487)
Sequence (P09487 whole entry): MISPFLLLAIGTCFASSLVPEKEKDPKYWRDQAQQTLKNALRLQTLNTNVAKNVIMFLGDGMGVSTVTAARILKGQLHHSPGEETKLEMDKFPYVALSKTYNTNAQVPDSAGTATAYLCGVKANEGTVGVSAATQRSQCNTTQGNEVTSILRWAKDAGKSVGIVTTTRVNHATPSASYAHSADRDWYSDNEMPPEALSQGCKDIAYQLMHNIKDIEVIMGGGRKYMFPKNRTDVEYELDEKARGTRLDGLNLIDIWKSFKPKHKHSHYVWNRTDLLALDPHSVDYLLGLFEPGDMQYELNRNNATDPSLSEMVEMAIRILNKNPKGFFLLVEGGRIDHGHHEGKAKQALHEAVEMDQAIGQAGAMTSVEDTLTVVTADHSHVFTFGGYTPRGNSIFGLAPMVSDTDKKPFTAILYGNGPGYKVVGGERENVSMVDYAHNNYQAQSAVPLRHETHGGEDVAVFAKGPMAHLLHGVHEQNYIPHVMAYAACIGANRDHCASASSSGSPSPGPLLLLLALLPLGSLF
Give the value, in units of µM, as a plain number.

Reference set, count: 5
CCCCOC1Oc2ccccc2C(=O)/C1=C\Nc1ccc(S(N)(=O)=O)cc1 (racemic) :: 1.95
COC1Oc2c(Cl)cc(Cl)cc2C(=O)/C1=C\Nc1cccc(S(N)(=O)=O)c1 (racemic) :: 1.49
CC(C)OC1Oc2ccccc2C(=O)/C1=C\Nc1cccc(S(N)(=O)=O)c1 (racemic) :: 47.5
COC1Oc2ccccc2C(=O)/C1=C\Nc1ccc(S(N)(=O)=O)cc1 (racemic) :: 72.9
COC1Oc2c(Cl)cc(Cl)cc2C(=O)/C1=C\Nc1ccccc1S(N)(=O)=O (racemic) :: 2.28

Consider COC1Oc2ccc(C)cc2C(=O)/C1=C\Nc1cccc(S(N)(=O)=O)c1 (racemic) . Its measured Ki is 47.2

// field: Ki; key: CC(C)OC1Oc2ccccc2C(=O)/C1=C\Nc1ccc(S(N)(=O)=O)cc1 (racemic) ; value = 20.1

----------
Item-by-item account of IC50
molecular target: 5'-nucleotidase (Homo sapiens, UniProt P21589); test: Inhibition of human Ecto-5'-nucleotidase transfected in COS7 cells preincubated for 10 mins followed by AMP addition measured after 10 mins
Sequence (P21589 whole entry): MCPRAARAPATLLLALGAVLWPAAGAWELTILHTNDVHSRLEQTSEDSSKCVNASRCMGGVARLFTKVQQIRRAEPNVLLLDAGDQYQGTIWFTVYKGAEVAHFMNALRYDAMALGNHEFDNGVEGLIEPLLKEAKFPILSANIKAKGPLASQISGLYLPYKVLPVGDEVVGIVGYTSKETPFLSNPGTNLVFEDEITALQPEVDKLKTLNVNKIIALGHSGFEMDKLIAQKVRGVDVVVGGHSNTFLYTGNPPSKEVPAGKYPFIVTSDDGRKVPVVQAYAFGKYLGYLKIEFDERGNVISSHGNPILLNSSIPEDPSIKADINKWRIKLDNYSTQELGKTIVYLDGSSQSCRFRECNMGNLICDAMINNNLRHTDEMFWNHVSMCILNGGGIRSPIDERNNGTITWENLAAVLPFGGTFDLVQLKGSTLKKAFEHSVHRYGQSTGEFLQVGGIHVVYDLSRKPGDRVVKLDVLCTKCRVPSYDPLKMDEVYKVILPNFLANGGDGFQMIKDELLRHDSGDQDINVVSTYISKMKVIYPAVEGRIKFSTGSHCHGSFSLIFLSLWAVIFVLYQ
The reply should read as a number followed by its unit.

Recorded result, CC(C)OC1Oc2ccccc2C(=O)/C1=C\Nc1ccc(S(N)(=O)=O)cc1 (racemic) , IC50: 1.17 µM

IC50 reported for this compound COC1Oc2ccccc2C(=O)/C1=C\Nc1ccc(S(N)(=O)=O)cc1 (racemic) : 7.11 µM

Reported IC50 ( COC1Oc2ccc(Cl)cc2C(=O)/C1=C\Nc1ccc(S(N)(=O)=O)cc1 (racemic) ) = 1.66 µM

----------
Target: Alkaline phosphatase, tissue-nonspecific isozyme (Bos taurus)
Sequence (P09487 whole entry): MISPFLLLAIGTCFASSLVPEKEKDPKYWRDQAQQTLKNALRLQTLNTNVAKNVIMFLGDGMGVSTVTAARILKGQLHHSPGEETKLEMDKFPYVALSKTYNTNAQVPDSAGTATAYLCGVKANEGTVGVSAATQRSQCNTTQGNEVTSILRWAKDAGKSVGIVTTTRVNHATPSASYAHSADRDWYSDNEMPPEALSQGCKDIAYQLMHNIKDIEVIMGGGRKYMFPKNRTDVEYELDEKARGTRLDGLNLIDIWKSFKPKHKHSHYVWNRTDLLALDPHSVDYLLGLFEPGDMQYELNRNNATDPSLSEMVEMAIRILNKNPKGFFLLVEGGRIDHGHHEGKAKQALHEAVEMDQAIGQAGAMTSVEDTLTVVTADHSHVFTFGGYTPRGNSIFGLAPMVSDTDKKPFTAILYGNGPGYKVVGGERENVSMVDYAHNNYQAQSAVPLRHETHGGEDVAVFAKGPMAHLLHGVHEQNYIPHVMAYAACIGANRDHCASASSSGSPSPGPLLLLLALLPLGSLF
measured quantity: pIC50
# log scale: pIC50 equals minus log10 of the concentration in mol/L

Recorded pIC50, per entry:
COC1Oc2ccc(F)cc2C(=O)/C1=C\Nc1ccccc1S(N)(=O)=O (racemic) :: 4.77
COC1Oc2c(Cl)cc(Cl)cc2C(=O)/C1=C\Nc1cccc(S(N)(=O)=O)c1 (racemic) :: 5.45
COC1Oc2ccc(C)cc2C(=O)/C1=C\Nc1ccc(S(N)(=O)=O)cc1 (racemic) :: 5.09
COC1Oc2ccc(F)cc2C(=O)/C1=C\Nc1ccc(S(N)(=O)=O)cc1 (racemic) :: 4.75
COC1Oc2ccc(F)cc2C(=O)/C1=C\Nc1cccc(S(N)(=O)=O)c1 (racemic) :: 5.84

For record COC1Oc2ccc(C)cc2C(=O)/C1=C\Nc1cccc(S(N)(=O)=O)c1 (racemic) the listed pIC50 is 3.96

The compound identified as COC1Oc2ccccc2C(=O)/C1=C\Nc1ccccc1S(N)(=O)=O (racemic) registered its pIC50 at 3.15

Looking up CC(C)OC1Oc2ccccc2C(=O)/C1=C\Nc1ccc(S(N)(=O)=O)cc1 (racemic) , I found its pIC50 recorded as 4.33
